B1: Osa-1-4 twister ribozyme (parent)
chain: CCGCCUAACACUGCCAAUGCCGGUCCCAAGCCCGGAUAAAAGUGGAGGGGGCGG

# Variants of: B1
# testDetails: self-cleavage, relative activity (ratio to wild type); higher = more cleavage; co-transcriptional
Reported self-cleavage values for a set of variants

{"mutantId": "G22C U37C", "self-cleavage": 0.14}
{"mutantId": "C25U U24A", "self-cleavage": 0.06}
{"mutantId": "G22A U12C", "self-cleavage": 0.21}
{"mutantId": "C31G C33A", "self-cleavage": 0.04}
{"mutantId": "A17G G22A", "self-cleavage": 0.97}
{"mutantId": "A17G U18A", "self-cleavage": 0.94}
{"mutantId": "A41G G51U", "self-cleavage": 0.12}
{"mutantId": "A40G G42C", "self-cleavage": 0.13}
{"mutantId": "A29G G48U", "self-cleavage": 0.03}
{"mutantId": "A38C G35C", "self-cleavage": 0.36}
{"mutantId": "C32A C52G", "self-cleavage": 0.1}
{"mutantId": "A40G G49U", "self-cleavage": 0.09}
{"mutantId": "A46U C26A", "self-cleavage": 0.02}
{"mutantId": "G13U G42A", "self-cleavage": 0.02}
{"mutantId": "A38U G50A", "self-cleavage": 0.64}
{"mutantId": "A29C C9U", "self-cleavage": 0.02}
{"mutantId": "C33G G30U", "self-cleavage": 0.02}
{"mutantId": "A40G C32G", "self-cleavage": 0.1}
{"mutantId": "A16G G53A", "self-cleavage": 0.91}
{"mutantId": "C21U C31A", "self-cleavage": 0.06}
{"mutantId": "C33G G49C", "self-cleavage": 0.03}
{"mutantId": "C9A G45A", "self-cleavage": 0.04}
{"mutantId": "G42U U12G", "self-cleavage": 0.06}
{"mutantId": "A17G U43C", "self-cleavage": 0.72}
{"mutantId": "G23C G44U", "self-cleavage": 0.04}
